tested.system: MCL-1 (Homo sapiens, UniProt Q07820)
Sequence (Q07820 whole entry): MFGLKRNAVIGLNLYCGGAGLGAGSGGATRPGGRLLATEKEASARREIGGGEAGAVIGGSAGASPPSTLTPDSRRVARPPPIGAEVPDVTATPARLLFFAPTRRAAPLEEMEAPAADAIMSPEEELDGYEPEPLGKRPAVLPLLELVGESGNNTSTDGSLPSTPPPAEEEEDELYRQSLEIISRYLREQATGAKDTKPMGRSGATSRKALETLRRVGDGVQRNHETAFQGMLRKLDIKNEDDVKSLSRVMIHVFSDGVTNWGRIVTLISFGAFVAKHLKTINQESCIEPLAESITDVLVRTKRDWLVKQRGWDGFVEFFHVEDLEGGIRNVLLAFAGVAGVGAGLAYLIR
experiment.description: Protein-protein interaction assay MCL-1/Noxa BH3 peptide (MCL-1 assay), TR-FRET
Assay type: binding
condition.summary: MBP-MCL-1 / Noxa BH3-derived peptide, median
measure.name: IC50 (nM)

These solved cases illustrate the format of a correct answer.
compound	value.observed
Cn1nc(COCc2ccc(C#N)cc2)c2c1COCCCCn1c(C(=O)O)c(CCCOc3cccc4ccccc34)c3cccc-2c31 (single isomer, unassigned; enantiomer 1) [Example 347]	343
COCC(=O)N1CCN(c2ccc(OCc3nn(C)c4c3-c3cccc5c(CCCOc6cccc7ccccc67)c(C(=O)O)n(c35)CCCCOC4)cc2)CC1 (single isomer, unassigned; enantiomer 1) [Example 1-28]	70.9

a. CN1CCCCn2c(C(=O)O)c(CCCOc3cccc4ccccc34)c3cccc(c32)-c2c(/C=C/F)nn(C)c2C1 (single isomer, unassigned) [Example 227]
b. Cc1cc(OCCCc2c(C(=O)O)n3c4c(cccc24)-c2c(C)nn(C)c2COCCCC3)cc(C)c1Cl (single isomer, unassigned; enantiomer 2) [Example 011]
-- ask Which value of IC50 is greater, the one for a or the one for b ? Lab note: record the label of whichever item you select.
-- reply b

* * *

Tested on: A2780
experiment.description: Anti-proliferative effect (CellTiter-Glo, 72 h), A2780
Type: cell-based
condition.summary: A2780 cells, median, read-out: IC50 antiproliferation assay A2780 [M] (median)
measure.name: IC50 (M)

compound	u	value.observed
Cn1nc2c(c1C(F)(F)F)-c1cccc3c(CCCOc4cccc5ccccc45)c(C(=O)O)n(c13)CCCCOC2 (single isomer, unassigned; enantiomer 2) [Example 195]	M	1.27e-05
Cc1c2c(nn1C)CCCCCCn1c(C(=O)O)c(CCCOc3cccc4ccccc34)c3cccc-2c31 (single isomer, unassigned; enantiomer 2)	M	1.8e-05

* * *

System: SUDHL5
experiment.description: Induction of cytotoxicity (CellTiter-Glo, 5 h), SUDHL5
condition.summary: read-out: Cytotox SUDHL5 [M] (median); SUDHL5 cells, cytotoxicity induction, CellTiter-Glo, 5 h incubation, median
Reported values of IC50 for individual entries

These solved cases illustrate the format of a correct answer.
compound	IC50
Cc1c2c(nn1C)COCCCn1c(C(=O)O)c(CCCOc3cccc4ccccc34)c3cccc-2c31 (single isomer, unassigned; enantiomer 2) [Example 065]	> 3.3e-05 M
COCc1c2c(nn1C)COCCCCn1c(C(=O)O)c(CCCOc3cccc4ccccc34)c3cccc-2c31 (single isomer, unassigned; enantiomer 1) [Example 100]	> 3.3e-05 M

Notebook: COCCn1nc2c(c1C)-c1cccc3c(CCCOc4cccc5ccccc45)c(C(=O)O)n(c13)CCCCOC2 (single isomer, unassigned; enantiomer 2) [Example 108] , IC50 read as > 3.3e-05 M

* * *

Test system: OPM2
experiment.description: Anti-proliferative effect (CellTiter-Glo, 72 h), OPM2
Type: cell-based
condition.summary: Homo sapiens, OPM-2, 72 h, OPM2 cells, median, read-out: IC50 antiproliferation assay OPM2 [M] (median)
measure.name: IC50

These solved cases illustrate the format of a correct answer.
compound	value.observed
Cn1nc(CN2CCOCC2)c2c1COCCCCn1c(C(=O)O)c(CCCOc3cccc4ccccc34)c3cccc-2c31 (racemic) [Example 135]	> 3.3e-05 M
CN1CCCn2c(C(=O)O)c(CCCOc3cccc4ccccc34)c3cccc(c32)-c2c(COc3ccc(-n4ccccc4=O)cc3)nn(C)c2C1 (single isomer, unassigned; enantiomer 1)	> 3.3e-05 M

Notebook: Cc1nn(C)c2c1-c1cccc3c(CCCOc4cccc5ccccc45)c(C(=O)O)n(c13)CC=CCN2Cc1ccccc1 (racemic) , IC50 read as > 3.3e-05 M

* * *

tested.system: MCL-1 (Homo sapiens)
experiment.description: Protein-protein interaction assay MCL-1/Noxa BH3 peptide (MCL-1 assay), TR-FRET
Type: binding
condition.summary: MBP-MCL-1 / Noxa BH3-derived peptide, median
Counter-ions that a name gives are not always drawn.
measure.name: IC50 (µM)

molecule	tested.system	u	IC50
Cc1nn(C)c2c1-c1cccc3c(CCCOc4cccc5cc(F)ccc45)c(C(=O)O)n(c13)CCCOC2 (single isomer, unassigned; enantiomer 2) [Example 048]	MCL-1 (Homo sapiens)	µM	0.0136

a. Cc1c2c(nn1CC(F)(F)F)COC/C=C\Cn1c(C(=O)O)c(CCCOc3cccc4ccccc34)c3cccc-2c31 (racemic)
b. Cn1nc(COc2ccc(N3CCN(CCC(C)(C)O)CC3)cc2)c2c1COCCCCn1c(C(=O)O)c(CCCOc3cccc4ccccc34)c3cccc-2c31 (racemic) [Example 1-121, Ammonium Salt]
-- ask Between a and b , which one shows the smaller IC50 number? Lab note: record the label of whichever item you select.
-- reply b

* * *

Test system: SUDHL10
experiment.description: Induction of cytotoxicity (CellTiter-Glo, 5 h), SUDHL10
condition.summary: read-out: Cytotox SUDHL10 [M] (median); SUDHL10 cells, cytotoxicity induction, CellTiter-Glo, 5 h incubation, median
Reported values of IC50 for individual entries

molecule	IC50
Cn1nc(COc2ccccc2)c2c1COCC=CCn1c(C(=O)O)c(CCCOc3cccc4ccccc34)c3cccc-2c31 (single isomer, unassigned) [Example 1-78]	> 3.3e-05 M
CCOCc1nn(C)c2c1-c1cccc3c(CCCOc4cccc5c4CCCC5)c(C(=O)O)n(c13)CCCCOC2 (single isomer, unassigned; enantiomer 2) [Example 172]	> 3.3e-05 M

Notebook: Cc1cc(OCCCc2c(C(=O)O)n3c4c(cccc24)-c2c(C)nn(C)c2COCCCC3)cc(C)c1Cl (single isomer, unassigned; enantiomer 2) [Example 011] , IC50 read as > 3.3e-05 M

* * *

System: SUDHL10
experiment.description: Induction of cytotoxicity (CellTiter-Glo, 5 h), SUDHL10
condition.summary: read-out: Cytotox SUDHL10 [M] (median); SUDHL10 cells, cytotoxicity induction, CellTiter-Glo, 5 h incubation, median
Reported values of IC50 for individual entries

These solved cases illustrate the format of a correct answer.
molecule	value.observed
Cc1c2c(nn1C)COCCCCn1c(C(=O)O)c(CCCOc3cccc4ccccc34)c3cccc-2c31 (single isomer, unassigned; enantiomer 2) [Example 1-38]	> 3.3e-05 M
Cn1nc2c(c1CN1CCOCC1)-c1cccc3c(CCCOc4cccc5ccccc45)c(C(=O)O)n(c13)CCCCOC2 (single isomer, unassigned; enantiomer 2) [Example 080]	> 3.3e-05 M

Notebook: Cc1cc(OCCCc2c(C(=O)O)n3c4c(cccc24)-c2c(COc4ccccc4)nn(C)c2CN(C)CCC3)cc(C)c1Cl (single isomer, unassigned) , IC50 read as > 3.3e-05 M

* * *

Reported values of IC50 for individual entries
Tested on: SUDHL5
experiment.description: Induction of cytotoxicity (CellTiter-Glo, 5 h), SUDHL5
condition.summary: read-out: Cytotox SUDHL5 [M] (median); SUDHL5 cells, cytotoxicity induction, CellTiter-Glo, 5 h incubation, median

These solved cases illustrate the format of a correct answer.
molecule	IC50
Cc1ccc2c(CCCOc3cccc4ccccc34)c(C(=O)O)n3c2c1-c1c(C)nn(C)c1COCCCC3 (single isomer, unassigned; enantiomer 2) [Example 029]	> 3.3e-05 M
Cc1nn(C)c2c1-c1cccc3c(CCCOc4cccc5c4CCCC5)c(C(=O)O)n(c13)CCCCOC2 (single isomer, unassigned; enantiomer 2) [Example 008]	> 3.3e-05 M
CCc1nn(C)c2c1-c1c(C)ccc3c(C(C)CCOc4cccc5cc(F)ccc45)c(C(=O)O)n(c13)CCCCOC2 (single isomer, unassigned) [Example 264]	> 3.3e-05 M
CCc1c2c(nn1CCN1CCOCC1)COCCCCn1c(C(=O)O)c(CCCOc3cccc4ccccc34)c3cccc-2c31 (single isomer, unassigned; enantiomer 1) [Example 202]	> 3.3e-05 M
Cn1nc(CN2CC(F)(F)C2)c2c1COCCCCn1c(C(=O)O)c(CCCOc3cccc4ccccc34)c3cccc-2c31 (single isomer, unassigned; enantiomer 2) [Example 182]	> 3.3e-05 M

Notebook: Cc1nn(C)c2c1-c1cccc3c(CCCOc4cccc5ccccc45)c(C(=O)O)n(c13)CCCN(c1ccc(N3CCOCC3)cc1)C2 (single isomer, unassigned; enantiomer 2) [Example 1-100] , IC50 read as > 3.3e-05 M
